Please go through the items and note down their selectivity ratio.
Assay: Selectivity index, ratio of IC50 for cytotoxicity against African green monkey Vero cells to IC50 for chloroquine-sensitive Plasmodium falciparum D6
Assay type: toxicity, cell-based
Conditions: read-out: Ratio IC50

Q. Endpoint output: selectivity ratio of Cc1cc(N2CCCC2)nc(N(CCCNc2ccnc3cc(Cl)ccc23)Cc2ccccn2)n1 . Value?
A. > 9.4

Q. Endpoint output: selectivity ratio of Cc1cc(N(CCCNc2ccnc3cc(Cl)ccc23)Cc2cccs2)nc(N2CCOCC2)n1 . Value?
A. 168

Q. Endpoint output: selectivity ratio of Cc1cc(Cl)nc(N(CCCNc2ccnc3cc(Cl)ccc23)Cc2cccs2)n1 . Value?
A. > 87.2

Each of the following entries comes with a recorded value; kindly state selectivity ratio for each.
1. Cc1cc(N2CCCC2)nc(N(CCNc2ccnc3cc(Cl)ccc23)Cc2ccccn2)n1
2. Cc1cc(N(CCCNc2ccnc3cc(Cl)ccc23)Cc2ccccn2)nc(Cl)n1

A.
1: > 71.7; 2: > 7.6
